# experimental-target: CD117 on wild-type cells (TF-1 cells, HSPCs, HSCs) (human, UniProt P10721 26-976)
# Sequence (P10721 26-976 limits assumed): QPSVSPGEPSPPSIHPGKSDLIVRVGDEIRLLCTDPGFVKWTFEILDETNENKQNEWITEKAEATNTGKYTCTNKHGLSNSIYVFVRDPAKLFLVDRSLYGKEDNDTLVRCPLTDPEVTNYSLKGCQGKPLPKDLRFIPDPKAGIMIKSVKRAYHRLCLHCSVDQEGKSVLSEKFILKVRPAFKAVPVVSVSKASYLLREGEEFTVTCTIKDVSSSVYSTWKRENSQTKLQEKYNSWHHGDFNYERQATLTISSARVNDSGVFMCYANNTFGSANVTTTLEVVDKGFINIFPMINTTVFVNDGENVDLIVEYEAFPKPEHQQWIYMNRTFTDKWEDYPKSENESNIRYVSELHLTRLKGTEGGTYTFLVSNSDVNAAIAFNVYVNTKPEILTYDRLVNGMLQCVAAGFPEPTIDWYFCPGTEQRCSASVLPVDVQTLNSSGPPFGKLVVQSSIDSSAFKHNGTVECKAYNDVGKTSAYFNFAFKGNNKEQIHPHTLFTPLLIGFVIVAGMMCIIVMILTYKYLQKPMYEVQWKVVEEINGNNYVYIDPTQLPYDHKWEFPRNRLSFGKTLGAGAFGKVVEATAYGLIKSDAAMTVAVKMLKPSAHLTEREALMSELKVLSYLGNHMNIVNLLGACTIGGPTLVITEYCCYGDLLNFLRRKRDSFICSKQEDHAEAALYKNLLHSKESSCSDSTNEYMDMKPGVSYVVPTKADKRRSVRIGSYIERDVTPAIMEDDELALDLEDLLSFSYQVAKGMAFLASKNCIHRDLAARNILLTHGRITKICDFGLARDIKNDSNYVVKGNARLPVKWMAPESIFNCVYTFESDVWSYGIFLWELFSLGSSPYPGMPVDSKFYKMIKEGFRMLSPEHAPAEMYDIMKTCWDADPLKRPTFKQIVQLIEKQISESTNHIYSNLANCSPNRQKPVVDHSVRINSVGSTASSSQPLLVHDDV
# assay-name: cell-based or functional assay
Please respond with reported IC50, inhibition of SCF-dependent proliferation of CD34-positive HSPCs (CellTiter-Glo) for every item in the list.
State just the number; it will be interpreted in µg/mL.

Q) Complete the entry with IC50, inhibition of SCF-dependent proliferation of CD34-positive HSPCs (CellTiter-Glo) for AMG191 (antibody, human IgG1, V domains shown) VH: QVQLVQSGAEVKKPGASVKVSCKASGYTFTSYNMHWVRQAPGQGLEWMGVIYSGNGDTSYNQKFKGRVTITADKSTSTAYMELSSLRSEDTAVYYCARERDTRFGNWGQGTLVTVSS VL: DIVMTQSPDSLAVSLGERATINCRASESVDIYGNSFMHWYQQKPGQPPKLLIYLASNLESGVPDRFSGSGSGTDFTLTISSLQAEDVAVYYCQQNNEDPYTFGGGTKVEIKR
A) 0.0954

Q) Report IC50, inhibition of SCF-dependent proliferation of CD34-positive HSPCs (CellTiter-Glo), nothing else, for this binder: Matterhorn (antibody, V domains shown, IgG; also called VH1/VL1.4; VH1/LC1.4) VH: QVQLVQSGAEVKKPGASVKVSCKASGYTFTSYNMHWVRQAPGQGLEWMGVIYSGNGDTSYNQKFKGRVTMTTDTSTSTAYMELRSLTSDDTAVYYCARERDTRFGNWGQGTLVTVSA VL: EIVLTQSPSSLSASVGDRVTITCRASESVDIYGSSFMHWYQQKPGKAPKLLIYLASNLESGVPSRFSGSGSGTDFTLTISSLQPEDFATYYCQQNNEDPYTFGQGTKLEIKR
A) 0.0716

Q) Output IC50, inhibition of SCF-dependent proliferation of CD34-positive HSPCs (CellTiter-Glo) of Bietschhorn (antibody, V domains shown, IgG; also called VH1/VL1.29) VH: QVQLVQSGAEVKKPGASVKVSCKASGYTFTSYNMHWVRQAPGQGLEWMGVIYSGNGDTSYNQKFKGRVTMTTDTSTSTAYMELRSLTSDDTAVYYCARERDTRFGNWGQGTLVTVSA VL: EIVLTQSPSSLSASVGDRVTITCRASESVDIYGESFMHWYQQKPGKAPKLLIYLASNLESGVPSRFSGSGSGTDFTLTISSLQPEDFATYYCQQNREEPYTFGQGTKLEIKR
A) 0.0842

Q) Tell me its IC50, inhibition of SCF-dependent proliferation of CD34-positive HSPCs (CellTiter-Glo) given Allalinhorn (antibody, V domains shown, IgG; also called VH1/VL1.19; Allaninhorn) VH: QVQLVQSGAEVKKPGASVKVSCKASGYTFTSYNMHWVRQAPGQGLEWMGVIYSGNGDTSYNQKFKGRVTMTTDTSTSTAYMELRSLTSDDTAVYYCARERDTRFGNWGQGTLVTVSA VL: EIVLTQSPSSLSASVGDRVTITCRASESVDIYGESFMHWYQQKPGKAPKLLIYLASNLESGVPSRFSGSGSGTDFTLTISSLQPEDFATYYCQQNKEEPYTFGQGTKLEIKR as the entry.
A) 0.0313
